Tested on: cataracts in rats
ASSAY_OVERVIEW: Prevention or retardation of cataracts in galactose-fed rats
Format: in vivo, rat
PARTICULARS: Study Day 16; 30% galactose diet; A,C,E 0.0025%, B,D 0.01%
% of Total Eyes, S (snowflake) by entry:
Write the answer as a number in %, unit excluded.

COMPOUND	% of Total Eyes, S (snowflake) (%)
C[S+]([O-])c1ccc2c(c1)C1(CCO2)NC(=O)NC1=O (stereo not shown)	37.5
CSc1ccc2c(c1)C1(CCO2)NC(=O)NC1=O (stereo not shown) [A]	50.0
O=C1NC(=O)C2(CCOc3ccc(F)cc32)N1 (stereo not shown)	0

// next entry
Look up % of Total Eyes, S (snowflake) for this compound: CSc1ccc2c(c1)C1(CCO2)NC(=O)NC1=O (stereo not shown) [B]
0

----------
% of Total Eyes, N (nuclear cataract) by entry:
Tested on: cataracts in rats
ASSAY_OVERVIEW: Prevention or retardation of cataracts in galactose-fed rats
Format: in vivo, rat
PARTICULARS: Study Day 26; 30% galactose diet; A,C,E 0.0025%, B,D 0.01%

MOLECULE	SYSTEM_UNDER_TEST	OBSERVED_RESULT
O=C1NC(=O)C2(CCOc3ccc(F)cc32)N1 (stereo not shown)	cataracts in rats	0%
CSc1ccc2c(c1)C1(CCO2)NC(=O)NC1=O (stereo not shown) [A]	cataracts in rats	0%
CSc1ccc2c(c1)C1(CCO2)NC(=O)NC1=O (stereo not shown) [B]	cataracts in rats	0%

// next entry
Look up % of Total Eyes, N (nuclear cataract) for this molecule: C[S+]([O-])c1ccc2c(c1)C1(CCO2)NC(=O)NC1=O (stereo not shown)
8.3%

----------
Number of Eyes Observed, ± by entry:
System: cataracts in rats
ASSAY_OVERVIEW: Prevention or retardation of cataracts in galactose-fed rats
Format: in vivo, rat
PARTICULARS: Study Day 18; 30% galactose diet; A,C,E 0.0025%, B,D 0.01%
Record the result as a number with its unit.

Here are 3 compounds together with their reported answers.
COMPOUND	MEASURED_METRIC	OBSERVED_RESULT
O=C1NC(=O)C2(CCOc3ccc(F)cc32)N1 (stereo not shown)	Number of Eyes Observed, ±	10 eyes
C[S+]([O-])c1ccc2c(c1)C1(CCO2)NC(=O)NC1=O (stereo not shown)	Number of Eyes Observed, ±	2 eyes
CSc1ccc2c(c1)C1(CCO2)NC(=O)NC1=O (stereo not shown) [A]	Number of Eyes Observed, ±	0 eyes

// next entry
Look up Number of Eyes Observed, ± for this compound: CSc1ccc2c(c1)C1(CCO2)NC(=O)NC1=O (stereo not shown) [B]
1 eyes

----------
Tested on: cataracts in rats
ASSAY_OVERVIEW: Prevention or retardation of cataracts in galactose-fed rats
Type: in vivo, rat
PARTICULARS: Study Day 14; 30% galactose diet; A,C,E 0.0025%, B,D 0.01%
% of Total Eyes, - (Normal) by entry:
Write the answer as a number in %, unit excluded.

MOLECULE	SYSTEM_UNDER_TEST	UNIT_TAG	% of Total Eyes, - (Normal)
CSc1ccc2c(c1)C1(CCO2)NC(=O)NC1=O (stereo not shown) [A]	cataracts in rats	%	0
C[S+]([O-])c1ccc2c(c1)C1(CCO2)NC(=O)NC1=O (stereo not shown)	cataracts in rats	%	0
O=C1NC(=O)C2(CCOc3ccc(F)cc32)N1 (stereo not shown)	cataracts in rats	%	87.5

// next entry
Provide the documented % of Total Eyes, - (Normal) with cataracts in rats as the system for CSc1ccc2c(c1)C1(CCO2)NC(=O)NC1=O (stereo not shown) [B]
12.5

----------
Test system: cataracts in rats
ASSAY_OVERVIEW: Prevention or retardation of cataracts in galactose-fed rats
Type: in vivo, rat
PARTICULARS: Study Day 18; 30% galactose diet; A,C,E 0.0025%, B,D 0.01%
MEASURED_METRIC: % of Total Eyes, N (nuclear cataract) (%)
Write the answer as a number in %, unit excluded.

Here are 3 compounds together with their reported answers.
COMPOUND	OBSERVED_RESULT
CSc1ccc2c(c1)C1(CCO2)NC(=O)NC1=O (stereo not shown) [B]	0
CSc1ccc2c(c1)C1(CCO2)NC(=O)NC1=O (stereo not shown) [A]	0
O=C1NC(=O)C2(CCOc3ccc(F)cc32)N1 (stereo not shown)	0

// next entry
Look up % of Total Eyes, N (nuclear cataract) for this compound: C[S+]([O-])c1ccc2c(c1)C1(CCO2)NC(=O)NC1=O (stereo not shown)
0

----------
% of Total Eyes, N (nuclear cataract) by entry:
Tested on: cataracts in rats
ASSAY_OVERVIEW: Prevention or retardation of cataracts in galactose-fed rats
Format: in vivo, rat
PARTICULARS: Study Day 20; 30% galactose diet; A,C,E 0.0025%, B,D 0.01%
Write the answer as a number in %, unit excluded.

MOLECULE	SYSTEM_UNDER_TEST	UNIT_TAG	% of Total Eyes, N (nuclear cataract)
O=C1NC(=O)C2(CCOc3ccc(F)cc32)N1 (stereo not shown) [E]	cataracts in rats	%	0

Look up % of Total Eyes, N (nuclear cataract) for this molecule: CSc1ccc2c(c1)C1(CCO2)NC(=O)NC1=O (stereo not shown) [B]
0

Would you mind doing C[S+]([O-])c1ccc2c(c1)C1(CCO2)NC(=O)NC1=O (stereo not shown) [D] as well?
4.2

Would you mind doing CSc1ccc2c(c1)C1(CCO2)NC(=O)NC1=O (stereo not shown) [A] as well?
0

----------
System: cataracts in rats
ASSAY_OVERVIEW: Prevention or retardation of cataracts in galactose-fed rats
Type: in vivo, rat
PARTICULARS: Study Day 26; 30% galactose diet; A,C,E 0.0025%, B,D 0.01%
MEASURED_METRIC: Number of Eyes Observed, S (snowflake) (eyes)
Write the answer as a number in eyes, unit excluded.

COMPOUND	SYSTEM_UNDER_TEST	UNIT_TAG	Number of Eyes Observed, S (snowflake)
O=C1NC(=O)C2(CCOc3ccc(F)cc32)N1 (stereo not shown)	cataracts in rats	eyes	20
C[S+]([O-])c1ccc2c(c1)C1(CCO2)NC(=O)NC1=O (stereo not shown)	cataracts in rats	eyes	18

Provide the documented Number of Eyes Observed, S (snowflake) with cataracts in rats as the system for CSc1ccc2c(c1)C1(CCO2)NC(=O)NC1=O (stereo not shown) [B]
19

Would you mind doing CSc1ccc2c(c1)C1(CCO2)NC(=O)NC1=O (stereo not shown) [A] as well?
22

----------
Tested on: cataracts in rats
ASSAY_OVERVIEW: Prevention or retardation of cataracts in galactose-fed rats
Type: in vivo, rat
PARTICULARS: Study Day 24; 30% galactose diet; A,C,E 0.0025%, B,D 0.01%
MEASURED_METRIC: Number of Eyes Observed, + (vacuole) (eyes)
Write the answer as a number in eyes, unit excluded.

Here are 3 molecules together with their reported answers.
MOLECULE	Number of Eyes Observed, + (vacuole) / eyes
CSc1ccc2c(c1)C1(CCO2)NC(=O)NC1=O (stereo not shown) [B]	11
CSc1ccc2c(c1)C1(CCO2)NC(=O)NC1=O (stereo not shown) [A]	4
O=C1NC(=O)C2(CCOc3ccc(F)cc32)N1 (stereo not shown)	3

Look up Number of Eyes Observed, + (vacuole) for this molecule: C[S+]([O-])c1ccc2c(c1)C1(CCO2)NC(=O)NC1=O (stereo not shown)
5

----------
Tested on: cataracts in rats
ASSAY_OVERVIEW: Prevention or retardation of cataracts in galactose-fed rats
Assay type: in vivo, rat
PARTICULARS: Study Day 24; 30% galactose diet; A,C,E 0.0025%, B,D 0.01%
MEASURED_METRIC: Number of Eyes Observed, N (nuclear cataract) (eyes)
Write the answer as a number in eyes, unit excluded.

MOLECULE	OBSERVED_RESULT
O=C1NC(=O)C2(CCOc3ccc(F)cc32)N1 (stereo not shown) [E]	0

Look up Number of Eyes Observed, N (nuclear cataract) for this molecule: C[S+]([O-])c1ccc2c(c1)C1(CCO2)NC(=O)NC1=O (stereo not shown) [D]
2

Would you mind doing CSc1ccc2c(c1)C1(CCO2)NC(=O)NC1=O (stereo not shown) [A] as well?
0

Would you mind doing CSc1ccc2c(c1)C1(CCO2)NC(=O)NC1=O (stereo not shown) [B] as well?
0

----------
Test system: cataracts in rats
ASSAY_OVERVIEW: Prevention or retardation of cataracts in galactose-fed rats
Type: in vivo, rat
PARTICULARS: Study Day 20; 30% galactose diet; A,C,E 0.0025%, B,D 0.01%
MEASURED_METRIC: Number of Eyes Observed, + (vacuole) (eyes)
Write the answer as a number in eyes, unit excluded.

MOLECULE	SYSTEM_UNDER_TEST	UNIT_TAG	OBSERVED_RESULT
O=C1NC(=O)C2(CCOc3ccc(F)cc32)N1 (stereo not shown) [E]	cataracts in rats	eyes	1
CSc1ccc2c(c1)C1(CCO2)NC(=O)NC1=O (stereo not shown) [B]	cataracts in rats	eyes	22
C[S+]([O-])c1ccc2c(c1)C1(CCO2)NC(=O)NC1=O (stereo not shown) [D]	cataracts in rats	eyes	7

// next entry
Look up Number of Eyes Observed, + (vacuole) for this molecule: CSc1ccc2c(c1)C1(CCO2)NC(=O)NC1=O (stereo not shown) [A]
6
